Listing of recorded AC50 by entry.
target_system: cGMP-inhibited 3',5'-cyclic phosphodiesterase 3A (Homo sapiens, UniProt Q14432); note: assay procedure not described here
Sequence (Q14432 whole entry): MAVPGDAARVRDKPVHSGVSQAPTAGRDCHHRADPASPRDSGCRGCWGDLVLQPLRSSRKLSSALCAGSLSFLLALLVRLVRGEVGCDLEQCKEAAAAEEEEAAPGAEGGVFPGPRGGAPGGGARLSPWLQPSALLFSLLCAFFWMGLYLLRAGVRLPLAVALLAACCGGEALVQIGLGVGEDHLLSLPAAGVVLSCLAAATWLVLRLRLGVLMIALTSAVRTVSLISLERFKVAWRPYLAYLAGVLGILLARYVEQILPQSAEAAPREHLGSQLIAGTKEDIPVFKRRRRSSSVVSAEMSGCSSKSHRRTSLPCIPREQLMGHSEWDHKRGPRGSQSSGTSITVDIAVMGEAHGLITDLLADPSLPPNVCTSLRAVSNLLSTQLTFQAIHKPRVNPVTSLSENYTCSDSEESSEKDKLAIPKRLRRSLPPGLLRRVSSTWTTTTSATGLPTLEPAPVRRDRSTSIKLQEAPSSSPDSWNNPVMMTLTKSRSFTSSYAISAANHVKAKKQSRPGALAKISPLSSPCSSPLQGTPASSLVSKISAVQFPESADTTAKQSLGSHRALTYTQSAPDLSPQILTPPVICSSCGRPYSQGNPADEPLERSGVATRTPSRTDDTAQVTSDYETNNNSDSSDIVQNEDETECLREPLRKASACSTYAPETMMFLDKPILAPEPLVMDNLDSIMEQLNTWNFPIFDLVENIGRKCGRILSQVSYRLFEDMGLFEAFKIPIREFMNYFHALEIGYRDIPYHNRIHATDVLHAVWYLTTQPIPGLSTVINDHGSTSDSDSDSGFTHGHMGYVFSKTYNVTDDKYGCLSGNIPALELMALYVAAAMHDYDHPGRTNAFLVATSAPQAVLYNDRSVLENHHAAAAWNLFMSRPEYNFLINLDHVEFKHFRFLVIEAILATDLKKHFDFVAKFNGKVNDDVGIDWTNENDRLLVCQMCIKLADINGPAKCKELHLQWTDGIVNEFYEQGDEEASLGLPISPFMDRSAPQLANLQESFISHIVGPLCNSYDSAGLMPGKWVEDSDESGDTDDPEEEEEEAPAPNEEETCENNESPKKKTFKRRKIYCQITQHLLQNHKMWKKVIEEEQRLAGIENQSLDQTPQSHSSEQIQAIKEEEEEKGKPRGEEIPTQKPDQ
Assay type: functional
metric_name: AC50

NC(N)=Nc1nc(CSCCC(N)=NS(N)(=O)=O)cs1 [FAMOTIDINE] : > 10 µM
CC(=O)N[C@H]1[C@H]([C@H](O)[C@H](O)CO)OC(C(=O)O)=C[C@@H]1N=C(N)N [ZANAMIVIR] : > 30 µM
C[C@H]1C[C@@H]2[C@H]([C@@H](O)C[C@@]3(C)[C@H]2CC[C@]3(O)C(=O)COC(=O)CCC(=O)O)[C@@]2(C)C=CC(=O)C=C12 [METHYLPREDNISOLONE HEMISUCCINATE] : > 30 µM
Cc1c(O)c(=O)ccn1C [DEFERIPRONE] : > 30 µM
C[C@@H]1O[C@@H]1P(=O)(O)O [FOSFOMYCIN] : > 30 µM
[H]/N=C(/N)c1ccc(NCc2nc3cc(C(=O)N(CCC(=O)O)c4ccccn4)ccc3n2C)cc1 [DABIGATRAN] : > 30 µM
CC(=O)OCC(=O)[C@@]12OC3(CCCC3)O[C@@H]1C[C@H]1[C@@H]3CCC4=CC(=O)C=C[C@]4(C)[C@@]3(F)[C@@H](O)C[C@@]12C [AMCINONIDE] : > 30 µM
O=C(O)c1cccc(-c2noc(-c3ccccc3F)n2)c1 : > 30 µM
CN1C(=O)CC(C)(c2ccccc2)C1=O (centres undefined) [METHSUXIMIDE] : > 30 µM
CN1CC[C@]23CCCC[C@H]2[C@H]1Cc1ccc(O)cc13 [LEVORPHANOL] : > 30 µM
CCN(CC)CCOC(=O)c1ccc(N)cc1 [PROCAINE] : > 10 µM
NC[C@H]1CC[C@H](C(=O)O)CC1 [TRANEXAMIC ACID] : > 30 µM
CN(CCCN1c2ccccc2CCc2ccccc21)CC(=O)c1ccc(Cl)cc1 [LOFEPRAMINE] : > 30 µM
O=C1CCC(N2C(=O)c3ccccc3C2=O)C(=O)N1 (centres undefined) [THALIDOMIDE] : > 30 µM
Oc1ncnc2[nH]ncc12 [ALLOPURINOL] : > 30 µM
CCN(CC)CCNC(=O)c1cc(Cl)c(N)cc1OC [METOCLOPRAMIDE] : > 30 µM
N/N=c1/cc2c(n[nH]1)CCN(C(=O)c1ccccc1)C2 [ENDRALAZINE] : > 30 µM
Nc1ncnc2c1ncn2[C@@H]1O[C@H](COP(=O)(O)O)[C@@H](O)[C@H]1O [ADENOSINE PHOSPHATE] : 16 µM
CCCCOc1cc(C(=O)NCCN(CC)CC)c2ccccc2n1 [DIBUCAINE] : > 30 µM
